Tested on: PC-3 prostate
assay_remarks: NCI-60 one-dose screen, 48 h (100 = growth as untreated, 0 = no growth, -100 = all killed)
recorded_conditions: 10 µM unless noted
Compounds without any hit were thinned out: in the full panel of roughly 83,000, 20% have a hit.

{"smiles_repr": "COc1cccc2cc(-c3cc4ccccc4[nH]3)/c(=N/C(=S)Nc3ccc(C)cc3)oc12", "unit_label": "%", "growth": 55.6}
{"smiles_repr": "COc1ccc(C2=C(c3ccccc3)c3ccc(OC(C)=O)cc3OC2(C)C)cc1", "unit_label": "%", "growth": 72.4}
{"smiles_repr": "N/C(=N\\N=C\\c1cc2ccccc2s1)N/N=C/c1cc2ccccc2s1", "unit_label": "%", "growth": 97.4}
{"smiles_repr": "CCOC(=O)c1c(O)cc(-c2ccccc2)cc1-c1sc(N(C)Cc2ccccc2)nc1Cl", "unit_label": "%", "growth": 97}
{"smiles_repr": "COc1cc(NCCCN(CC(C)C)CC(C)C)c2ncccc2c1", "unit_label": "%", "growth": 70.4}
{"smiles_repr": "O=C(Nc1nc2ccc(C(=O)N3CCN(c4ccc(Cl)c(Cl)c4)CC3)cc2s1)c1ccc(NCCc2ccccc2)c([N+](=O)[O-])c1", "unit_label": "%", "growth": 92.4}
{"smiles_repr": "O=c1[nH]nc(-c2ccc(Br)cc2)cc1Cc1ccc(O)cc1", "unit_label": "%", "growth": 80.4}
{"smiles_repr": "CNC(=O)c1c(NC(=O)c2ccc(C(C)C)cc2)sc2c(CN(C)C)c(O)ccc12", "unit_label": "%", "growth": 79.4}
{"smiles_repr": "Cc1cc(C)n(Nc2nc3ccccc3[nH]c2=O)c(=O)c1C#N", "unit_label": "%", "growth": 94.8}
{"smiles_repr": "CCc1c(Nc2ccc(C)cc2)nc(N)[nH]c1=O", "unit_label": "%", "growth": 95.4}
{"smiles_repr": "NC(=S)N/N=C(\\c1ccc(Cl)cc1)C1CC1", "unit_label": "%", "growth": 77.9}

###

Below, each entry is listed alongside its reported growth.
System: CCRF-CEM leukemia
assay_remarks: NCI-60 one-dose screen, 48 h (100 = growth as untreated, 0 = no growth, -100 = all killed)
recorded_conditions: 10 µM unless noted
About 83,000 compounds went through this panel and 20% of them were active in at least one assay; those are over-represented in the sample as a whole.
property_label: growth (%)

{"molecule": "COc1ccc(C(=O)c2cc3c(N)c(C(=O)Nc4cccc(Cl)c4)sc3nc2C)cc1", "reported_measurement": 8.14}
{"molecule": "COc1ccc(C(O)c2cc3c(N)c(C(=O)Nc4ccc(Br)cc4)sc3nc2C)cc1 (stereo unspecified)", "reported_measurement": 6.36}
{"molecule": "CN1CCN(c2cc(F)c(NC3=C(Cl)C(=O)c4ncccc4C3=O)c(F)c2)CC1", "reported_measurement": -18.2}
{"molecule": "CC1NC(=S)NC(=O)/C1=C/c1cc(=O)oc2c1ccc1ccccc12 (stereo unspecified)", "reported_measurement": 81}
{"molecule": "N#Cc1c(NC(=O)c2cccc(Br)c2)sc2c1CCCC2", "reported_measurement": 63.5}
{"molecule": "CC(=O)c1cc2c(N)c(C(=O)Nc3cncc4ccccc34)sc2nc1C", "reported_measurement": 104}
{"molecule": "Cc1ccc2nc3c(cc2c1)CSc1nnc(-c2ccc[nH]c2=S)n1N3", "reported_measurement": 104}
{"molecule": "Cn1c(COC(=O)N2CCCCC2)nc2c(N3CCOCC3)nc(-c3ccccc3)nc21", "reported_measurement": -6.4}
{"molecule": "CCCCCCC/C=C/[C@H]1O[C@]2(O)C(=O)C=C3C[C@@H](O[C@@H]4O[C@H](CO)[C@@H](O)C(O)[C@@H]4O)C[C@@H]3[C@H]2C=C1C (stereo partly specified)", "reported_measurement": 9.27}
{"molecule": "CC(=O)CCSc1ccc(OC(C)=O)cc1", "reported_measurement": 75.3}
{"molecule": "CCOc1ccc(/C=N/Nc2cc(C)nc3ccc(Cl)cc23)cc1", "reported_measurement": 0.25}
{"molecule": "O=C(Cc1ccc(/C=C/C(=O)c2ncc[nH]2)cc1)Nc1ccc(C(F)(F)F)cc1", "reported_measurement": -9.03}
{"molecule": "COc1ccccc1C(C[N+](=O)[O-])c1c(-c2ccccc2)[nH]c2cc(C)ccc12 (stereo unspecified)", "reported_measurement": 54.4}
{"molecule": "CCOC(=O)C1=C(C)NC(C)=C(C(=O)OCC)C1c1cc(Br)c(O)c(OC)c1", "reported_measurement": 19.9}
{"molecule": "CC(O)(CO)c1ccccc1 (stereo unspecified)", "reported_measurement": 113}
{"molecule": "C#CC(=O)Nc1cccc(Nc2nc3c(c(NCc4ccccc4)n2)CCCC3)c1", "reported_measurement": -8.54}
{"molecule": "NC(=S)N/N=C(/c1ccccc1)c1ccccc1N", "reported_measurement": 60.2}
{"molecule": "Fc1ccc(C2CC(c3cccc(Nc4ccncc4)c3)=NN2c2cc(Cl)cc(Cl)c2)cc1 (stereo unspecified)", "reported_measurement": 0.277}
{"molecule": "COC(=O)N[C@H]1CCc2cc(OC)c(OC)c(OC)c2-c2ccc(SC)c(=O)cc21", "reported_measurement": 15.6}
{"molecule": "CCC(C)C(N)C(=O)NNc1n[nH]c(=S)n1N (stereo unspecified)", "reported_measurement": 99.7}
{"molecule": "CN(C)CCCn1c2c(c3ccc(-c4ccn[nH]4)cc3c1=O)C(=O)c1ccccc1-2", "reported_measurement": 0.484}
